All figures here come from patent EP4786492A1.

target or test system: human delta-like ligand 3 (DLL3) on SHP77 cells (human) (UniProt Q9NYJ7)
Sequence (Q9NYJ7 27-618, stated change not applied): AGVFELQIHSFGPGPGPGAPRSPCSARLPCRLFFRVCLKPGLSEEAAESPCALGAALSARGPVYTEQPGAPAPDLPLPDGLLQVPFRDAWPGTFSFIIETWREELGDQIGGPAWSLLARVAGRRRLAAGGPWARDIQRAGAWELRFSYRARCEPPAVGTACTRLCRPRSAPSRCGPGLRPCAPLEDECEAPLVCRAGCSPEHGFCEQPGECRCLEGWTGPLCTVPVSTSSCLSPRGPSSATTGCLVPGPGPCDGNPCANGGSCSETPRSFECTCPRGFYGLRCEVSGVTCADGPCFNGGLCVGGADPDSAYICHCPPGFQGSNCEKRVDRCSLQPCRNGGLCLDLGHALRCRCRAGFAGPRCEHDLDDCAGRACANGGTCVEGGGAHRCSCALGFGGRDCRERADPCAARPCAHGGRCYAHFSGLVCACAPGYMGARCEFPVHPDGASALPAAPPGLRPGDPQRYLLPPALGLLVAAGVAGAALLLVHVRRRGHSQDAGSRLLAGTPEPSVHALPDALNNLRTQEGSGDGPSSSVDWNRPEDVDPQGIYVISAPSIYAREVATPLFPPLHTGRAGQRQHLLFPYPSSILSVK
experiment notes: FACS on SHP77 cells
Reported MFI at 0.16 nM is given for each of the following binders.
Your answer is read as MFI, so omit the unit and give the number.

[[record]]
binder = "Hab015VL5VH1b-hFc (scFv, part only; not given: VL-VH linker and human IgG1 Fc, V domains shown, not shown: another chain or arm of the molecule; a dimerising Fc or GST; small tags and cut ends) VL: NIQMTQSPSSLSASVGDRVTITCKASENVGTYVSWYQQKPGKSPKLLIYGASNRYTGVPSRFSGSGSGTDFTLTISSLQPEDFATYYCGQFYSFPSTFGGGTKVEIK VH: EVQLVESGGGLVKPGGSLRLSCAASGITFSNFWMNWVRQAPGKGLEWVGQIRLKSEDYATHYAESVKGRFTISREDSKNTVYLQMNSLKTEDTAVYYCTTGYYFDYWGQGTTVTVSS"
reported_endpoint = "MFI at 0.16 nM"
observed_value = 356

[[record]]
binder = "Hab009VL2aVH1-hFc (scFv, part only; not given: VL-VH linker and human IgG1 Fc, V domains shown, not shown: another chain or arm of the molecule; a dimerising Fc or GST; small tags and cut ends) VL: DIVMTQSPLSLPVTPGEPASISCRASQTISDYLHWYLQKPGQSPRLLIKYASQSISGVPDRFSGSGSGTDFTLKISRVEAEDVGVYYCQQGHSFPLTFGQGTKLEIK VH: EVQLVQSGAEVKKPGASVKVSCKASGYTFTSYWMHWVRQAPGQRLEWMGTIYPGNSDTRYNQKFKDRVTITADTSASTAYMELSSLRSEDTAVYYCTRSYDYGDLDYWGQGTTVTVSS"
reported_endpoint = "MFI at 0.16 nM"
observed_value = 432


Now examine the next entry.
Name the reported MFI at 0.16 nM value associated with the binder Hab014VL1VH2-hFc (scFv, part only; not given: VL-VH linker and human IgG1 Fc, V domains shown, not shown: another chain or arm of the molecule; a dimerising Fc or GST; small tags and cut ends) VL: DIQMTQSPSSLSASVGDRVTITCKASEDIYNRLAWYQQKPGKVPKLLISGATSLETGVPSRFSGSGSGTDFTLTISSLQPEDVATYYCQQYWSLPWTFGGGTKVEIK VH: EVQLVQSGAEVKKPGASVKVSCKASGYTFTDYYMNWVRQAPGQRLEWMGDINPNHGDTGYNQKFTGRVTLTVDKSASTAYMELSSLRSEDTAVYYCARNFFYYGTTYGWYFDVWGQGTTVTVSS
192
